test system: Calu-3; experiment: cell viability relative to DMSO; higher = less toxic; details: 72 h; 1 nM
Listing: cell viability of selected compounds
Note: state the figure and append the unit.

Recorded cell viability, per entry:
1. O=c1oc2c(O)c(O)cc3c(=O)oc4c(O)c(O)cc1c4c23
98.4%
2. COc1ccc(OC)c(C(O)C(C)N)c1 (stereo not given)
93.7%
3. CCCCc1cc2ccccc2c(OCCN(C)C)n1
104%
4. COC(=O)c1ccccc1NC(=O)c1ccc(F)cc1 [EXO-1]
97.9%
5. CC(C)C[C@H](NC(=O)CNC(=O)[C@H](Cc1ccc(O)cc1)NC(=O)[C@H](CO)NC(=O)[C@H](Cc1c[nH]c2ccccc12)NC(=O)[C@H](Cc1cnc[nH]1)NC(=O)[C@@H]1CCC(=O)N1)C(=O)N[C@@H](CCCNC(=N)N)C(=O)N1CCC[C@H]1C(=O)NCC(N)=O
94.7%
6. CCOC(=O)c1ccc(N2NC(=O)/C(=C/c3ccc([N+](=O)[O-])o3)C2=O)cc1
85.5%
7. C[n+]1cc2c3c(ccc2c2ccc4cc5c(cc4c21)OCO5)OCO3 [sanguinarium-chloride]
101%
8. CCCCCC(=O)O[C@]1(C(C)=O)CC[C@H]2[C@@H]3CCC4=CC(=O)CC[C@]4(C)[C@H]3CC[C@@]21C [17-hydroxyprogesterone-caproate]
86.9%

Give the measured cell viability of CN(CCOc1ccc(CC2SC(=O)NC2=O)cc1)c1ccccn1 (stereo not given) .
105%

// query: N=C(N)NCCC[C@@H](NC(=O)[C@@H]1CCCN1C(=O)[C@@H]1CSSCCC(=O)N[C@@H](Cc2ccc(O)cc2)C(=O)N[C@@H](Cc2ccccc2)C(=O)N[C@@H](CCC(N)=O)C(=O)N[C@@H](CC(N)=O)C(=O)N1)C(=O)NCC(N)=O [desmopressin-acetate]
101%

Can you check CC1(C)[C@H]2CC[C@]1(C)[C@@H](O)[C@H]2O [cis-exo-camphanediol-2,3] next?
104%

Consider next the compound CN(c1nccc(=O)[nH]1)C1CCN(c2nc3ccccc3n2Cc2ccc(F)cc2)CC1 in the same way.
103%

Similarly, CCCCCC(O)CCCC(=O)O (stereo not given) ?
98.6%

Try this compound too: Cc1c(C(=O)Nc2ccc(N3C[C@@H](C)O[C@@H](C)C3)nc2)cccc1-c1ccc(OC(F)(F)F)cc1
109%

Entry CCCCCCCCCCCCCCCCO please
94%
